# System: dCK-C3S-S74E
# Sequence (P27707 whole entry S74E, form open): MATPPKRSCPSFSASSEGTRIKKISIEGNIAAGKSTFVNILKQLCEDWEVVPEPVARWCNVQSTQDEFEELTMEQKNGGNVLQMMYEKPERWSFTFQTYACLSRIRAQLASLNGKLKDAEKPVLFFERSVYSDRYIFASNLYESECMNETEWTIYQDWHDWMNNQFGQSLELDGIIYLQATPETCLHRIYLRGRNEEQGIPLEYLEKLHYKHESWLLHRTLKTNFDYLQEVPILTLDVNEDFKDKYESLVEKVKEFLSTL
# protocol_notes: Thermal shift assay (TSA)
# experimental_parameters: Figure 2a, mean
Reported ΔTm (º) (TSA) is given for each of the following compounds.
property_label: ΔTm (º) (TSA)

[[record]]
test_smiles = "CCCN(c1nc(-c2nc(N)cc(N)n2)cs1)c1cc(-c2ccc(S(=O)(=O)N3CCC(N)CC3)cc2)ccc1C"
property_label = "ΔTm (º) (TSA)"
result = "22.28 º"

[[record]]
test_smiles = "CCCN(c1nc(-c2nc(N)cc(N)n2)cs1)c1cc(-c2ccc(S(=O)(=O)N3CCN(C)CC3)c(OC(F)(F)F)c2)ccc1C"
property_label = "ΔTm (º) (TSA)"
result = "18.61 º"

[[record]]
test_smiles = "CCN(c1nc(-c2nc(N)cc(N)n2)cs1)c1cc(-c2ccc(S(=O)(=O)N3CCN(C)CC3)cc2)ccc1C"
property_label = "ΔTm (º) (TSA)"
result = "17.75 º"

[[record]]
test_smiles = "CCCN(c1nc(-c2nc(N)cc(N)n2)cs1)c1cc(-c2c(F)cc(S(=O)(=O)N3CCN(C)CC3)cc2OC)ccc1C"
property_label = "ΔTm (º) (TSA)"
result = "20.5 º"


* * *

# experimental_target: dCK-C3S-S74E
# protocol_notes: Enzymatic assay (PK/LDH coupled), dC phosphorylation by dCK in the presence of ATP
# Type: biochemical, human
# experimental_parameters: ATP; technical limit of the assay; read-out: enzymatic inhibition IC50
pIC50: −log10 of the molar value.
property_label: pIC50

[[record]]
test_smiles = "CCCN(c1nc(-c2nc(N)cc(N)n2)cs1)c1cc(-c2ccc(CCN3CCN(C)CC3)nc2)ccc1C"
numeric_readout = 7.11


* * *

# System: dCK-C3S-S74E
# protocol_notes: Enzymatic assay (PK/LDH coupled), dC phosphorylation by dCK in the presence of ATP
# Type: biochemical, human
# experimental_parameters: 0.16 µM
Returns: string. Value is class 1 if measured Enzymatic activity (ATP) Mean (% activity) is below 90%, and class 0 if it is greater than or equal to it.

[[record]]
test_smiles = "CCCN(c1nc(-c2nccc(N)n2)cs1)c1cc(-c2ccc(CCN3CCN(C)CC3)cc2)ccc1C"
class_label = "class 1"

[[record]]
test_smiles = "Cc1ccc(NC(=O)c2ccc(CN3CCN(C)CC3)cc2)cc1Nc1nc(-c2nccc(N)n2)cs1"
class_label = "class 0"

[[record]]
test_smiles = "CCCN(c1nc(-c2nc(N)cc(N)n2)cs1)c1cc(-c2ccc(CCN3CCN(C)CC3)cc2)ccc1C"
class_label = "class 1"

[[record]]
test_smiles = "CCCN(c1nc(-c2nc(N)cc(N)n2)cs1)c1cc(-c2ccc(S(=O)(=O)N3CCN(C)CC3)c(OC)c2)ccc1C"
class_label = "class 1"

[[record]]
test_smiles = "CCCN(c1nc(-c2nc(N)cc(N)n2)cs1)c1cc(-c2ccc(CCN3CCN(C)CC3)nc2)ccc1C"
class_label = "class 1"

[[record]]
test_smiles = "CCCN(c1nc(-c2nc(N)cc(N)n2)cs1)c1cc(-c2ccc(S(=O)(=O)N3CCN(C)CC3)cc2C(F)(F)F)ccc1C"
class_label = "class 1"

[[record]]
test_smiles = "Cc1ccc(NC(=O)c2ccc(CN3CCN(C)CC3)cc2)cc1Nc1nc(-c2nc(N)cc(N)n2)cs1"
class_label = "class 0"

[[record]]
test_smiles = "Cc1ccc(-c2ccc(CN3CCN(C)CC3)cc2)cc1Nc1nc(-c2nccc(N)n2)cs1"
class_label = "class 1"

[[record]]
test_smiles = "Cc1ccc(-c2ccc(CCN3CCN(C)CC3)cc2)cc1Nc1nc(-c2nccc(N)n2)cs1"
class_label = "class 1"


* * *

# Test system: CCRF-CEM cell line
# protocol_notes: dCK cellular assay: CCRF-CEM proliferation in the presence of dT and dC
# Format: cell-based, human
# experimental_parameters: Homo sapiens, CCRF-CEM; 5000 nM, dT 200 µM + dC 1 µM; read-out: Cell proliferation of the CCRF-CEM cell line Mean (% prolif)
Returns: string. Value is rule met if measured activity at 5 µM is below 2%, and rule not met if it is greater than or equal to it.

[[record]]
test_smiles = "CCCN(c1nc(-c2nc(N)cc(N)n2)cs1)c1cc(-c2ccc(CCN3CCN(C)CC3)cc2)ccc1C"
class_label = "rule met"

[[record]]
test_smiles = "Cc1ccc(-c2ccc(CN3CCN(C)CC3)cc2)cc1Nc1nc(-c2nccc(N)n2)cs1"
class_label = "rule not met"

[[record]]
test_smiles = "CCCN(c1nc(-c2nccc(N)n2)cs1)c1cc(-c2ccc(CCN3CCN(C)CC3)cc2)ccc1C"
class_label = "rule not met"

[[record]]
test_smiles = "Cc1ccc(-c2ccc(CCN3CCN(C)CC3)cc2)cc1Nc1nc(-c2nccc(N)n2)cs1"
class_label = "rule not met"

[[record]]
test_smiles = "Cc1ccc(NC(=O)c2ccc(CN3CCN(C)CC3)cc2)cc1Nc1nc(-c2nccc(N)n2)cs1"
class_label = "rule not met"

[[record]]
test_smiles = "Cc1ccc(NC(=O)c2ccc(CN3CCN(C)CC3)cc2)cc1Nc1nc(-c2nc(N)cc(N)n2)cs1"
class_label = "rule not met"


* * *

# System: CCRF-CEM cell line
# protocol_notes: dCK cellular assay: CCRF-CEM proliferation in the presence of dT and dC
# Format: cell-based, human
# experimental_parameters: Homo sapiens, CCRF-CEM, read-out: IC50 (nM) (Cell Prolif)
property_label: IC50 (nM)

[[record]]
test_smiles = "CCCN(c1nc(-c2nc(N)cc(N)n2)cs1)c1cc(-c2ccc(S(=O)(=O)N3CCN(CC(=O)[O-])CC3)cc2)ccc1C.[Na+]"
unit_text = "nM"
numeric_readout = 13400


* * *

# Test system: CCRF-CEM cell line
# protocol_notes: dCK cellular assay: CCRF-CEM proliferation in the presence of dT and dC
# Format: cell-based, human
# experimental_parameters: Homo sapiens, CCRF-CEM; 10000 nM, dT 200 µM + dC 1 µM; read-out: Cell proliferation of the CCRF-CEM cell line Mean (% prolif)
property_label: activity at 10 µM (%)

[[record]]
test_smiles = "Cc1ccc(-c2ccc(CCN3CCN(C)CC3)cc2)cc1Nc1nc(-c2nccc(N)n2)cs1"
property_label = "activity at 10 µM"
unit_text = "%"
numeric_readout = 0.0667

[[record]]
test_smiles = "Cc1ccc(NC(=O)c2ccc(CN3CCN(C)CC3)cc2)cc1Nc1nc(-c2nc(N)cc(N)n2)cs1"
property_label = "activity at 10 µM"
unit_text = "%"
numeric_readout = 29.6

[[record]]
test_smiles = "CCCN(c1nc(-c2nccc(N)n2)cs1)c1cc(-c2ccc(CCN3CCN(C)CC3)cc2)ccc1C"
property_label = "activity at 10 µM"
unit_text = "%"
numeric_readout = 0.333

[[record]]
test_smiles = "Cc1ccc(-c2ccc(CN3CCN(C)CC3)cc2)cc1Nc1nc(-c2nccc(N)n2)cs1"
property_label = "activity at 10 µM"
unit_text = "%"
numeric_readout = 7.8

[[record]]
test_smiles = "Cc1ccc(NC(=O)c2ccc(CN3CCN(C)CC3)cc2)cc1Nc1nc(-c2nccc(N)n2)cs1"
property_label = "activity at 10 µM"
unit_text = "%"
numeric_readout = 31


* * *

# Test system: dCK-C3S-S74E
# protocol_notes: Enzymatic assay (PK/LDH coupled), dC phosphorylation by dCK in the presence of ATP
# Assay type: biochemical, human
# experimental_parameters: 1.25 µM
property_label: Enzymatic activity (ATP) Mean (% activity) (%)

[[record]]
test_smiles = "CCCN(c1nc(-c2nc(N)cc(N)n2)cs1)c1cc(-c2ccc(S(=O)(=O)N3CCN(C)CC3)cc2C(F)(F)F)ccc1C"
experimental_target = "dCK-C3S-S74E"
numeric_readout = 2.4

[[record]]
test_smiles = "Cc1ccc(NC(=O)c2ccc(CN3CCN(C)CC3)cc2)cc1Nc1nc(-c2nc(N)cc(N)n2)cs1"
experimental_target = "dCK-C3S-S74E"
numeric_readout = 35.4

[[record]]
test_smiles = "Cc1ccc(NC(=O)c2ccc(CN3CCN(C)CC3)cc2)cc1Nc1nc(-c2nccc(N)n2)cs1"
experimental_target = "dCK-C3S-S74E"
numeric_readout = 77.3

[[record]]
test_smiles = "CCCN(c1nc(-c2nc(N)cc(N)n2)cs1)c1cc(-c2ccc(CCN3CCN(C)CC3)cc2)ccc1C"
experimental_target = "dCK-C3S-S74E"
numeric_readout = 1.1

[[record]]
test_smiles = "CCCN(c1nc(-c2nccc(N)n2)cs1)c1cc(-c2ccc(CCN3CCN(C)CC3)cc2)ccc1C"
experimental_target = "dCK-C3S-S74E"
numeric_readout = 5.3

[[record]]
test_smiles = "CCCN(c1nc(-c2nc(N)cc(N)n2)cs1)c1cc(-c2ccc(S(=O)(=O)N3CCN(C)CC3)c(OC)c2)ccc1C"
experimental_target = "dCK-C3S-S74E"
numeric_readout = 2.0

[[record]]
test_smiles = "Cc1ccc(-c2ccc(CN3CCN(C)CC3)cc2)cc1Nc1nc(-c2nccc(N)n2)cs1"
experimental_target = "dCK-C3S-S74E"
numeric_readout = 44.6

[[record]]
test_smiles = "Cc1ccc(-c2ccc(CCN3CCN(C)CC3)cc2)cc1Nc1nc(-c2nccc(N)n2)cs1"
experimental_target = "dCK-C3S-S74E"
numeric_readout = 34.0

[[record]]
test_smiles = "CCCN(c1nc(-c2nc(N)cc(N)n2)cs1)c1cc(-c2ccc(CCN3CCN(C)CC3)nc2)ccc1C"
experimental_target = "dCK-C3S-S74E"
numeric_readout = 6.6

